molecular target: α4β1 integrin (Homo sapiens (Human), UniProt P05556+P13612); assay: Integrin Adhesion Assay: Protocol 2 (VCAM-coated plate, Jurkat cells, CellTiter GLO readout); assay type: cell-based; conditions: determined by at least one of the assays described (protocol not specified)
Sequence (P13612 34-1032): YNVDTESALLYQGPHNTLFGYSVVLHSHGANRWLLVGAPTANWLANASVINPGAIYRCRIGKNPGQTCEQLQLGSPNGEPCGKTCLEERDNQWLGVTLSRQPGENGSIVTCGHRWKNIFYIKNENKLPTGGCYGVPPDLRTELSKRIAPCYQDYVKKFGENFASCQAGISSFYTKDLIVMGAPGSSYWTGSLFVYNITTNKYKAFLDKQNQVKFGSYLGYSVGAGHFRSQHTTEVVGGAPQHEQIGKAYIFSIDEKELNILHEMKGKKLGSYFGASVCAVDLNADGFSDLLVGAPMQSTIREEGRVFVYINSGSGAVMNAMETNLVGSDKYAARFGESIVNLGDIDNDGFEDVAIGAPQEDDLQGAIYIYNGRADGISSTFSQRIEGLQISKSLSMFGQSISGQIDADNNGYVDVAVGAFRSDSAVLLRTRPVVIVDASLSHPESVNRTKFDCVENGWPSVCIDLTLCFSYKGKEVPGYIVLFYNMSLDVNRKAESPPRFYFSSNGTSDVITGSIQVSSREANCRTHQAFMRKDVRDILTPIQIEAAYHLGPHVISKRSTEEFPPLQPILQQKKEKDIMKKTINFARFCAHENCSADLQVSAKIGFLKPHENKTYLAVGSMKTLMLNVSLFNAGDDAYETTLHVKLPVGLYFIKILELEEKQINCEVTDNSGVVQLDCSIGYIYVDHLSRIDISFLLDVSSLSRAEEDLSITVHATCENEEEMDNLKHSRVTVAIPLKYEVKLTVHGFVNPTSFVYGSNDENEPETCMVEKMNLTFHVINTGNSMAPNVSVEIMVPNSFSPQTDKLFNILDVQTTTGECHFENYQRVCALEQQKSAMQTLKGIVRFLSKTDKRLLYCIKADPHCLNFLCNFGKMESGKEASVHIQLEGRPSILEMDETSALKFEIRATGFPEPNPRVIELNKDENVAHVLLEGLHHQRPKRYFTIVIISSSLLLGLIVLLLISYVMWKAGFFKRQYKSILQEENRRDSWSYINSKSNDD
Sequence (P05556 21-798): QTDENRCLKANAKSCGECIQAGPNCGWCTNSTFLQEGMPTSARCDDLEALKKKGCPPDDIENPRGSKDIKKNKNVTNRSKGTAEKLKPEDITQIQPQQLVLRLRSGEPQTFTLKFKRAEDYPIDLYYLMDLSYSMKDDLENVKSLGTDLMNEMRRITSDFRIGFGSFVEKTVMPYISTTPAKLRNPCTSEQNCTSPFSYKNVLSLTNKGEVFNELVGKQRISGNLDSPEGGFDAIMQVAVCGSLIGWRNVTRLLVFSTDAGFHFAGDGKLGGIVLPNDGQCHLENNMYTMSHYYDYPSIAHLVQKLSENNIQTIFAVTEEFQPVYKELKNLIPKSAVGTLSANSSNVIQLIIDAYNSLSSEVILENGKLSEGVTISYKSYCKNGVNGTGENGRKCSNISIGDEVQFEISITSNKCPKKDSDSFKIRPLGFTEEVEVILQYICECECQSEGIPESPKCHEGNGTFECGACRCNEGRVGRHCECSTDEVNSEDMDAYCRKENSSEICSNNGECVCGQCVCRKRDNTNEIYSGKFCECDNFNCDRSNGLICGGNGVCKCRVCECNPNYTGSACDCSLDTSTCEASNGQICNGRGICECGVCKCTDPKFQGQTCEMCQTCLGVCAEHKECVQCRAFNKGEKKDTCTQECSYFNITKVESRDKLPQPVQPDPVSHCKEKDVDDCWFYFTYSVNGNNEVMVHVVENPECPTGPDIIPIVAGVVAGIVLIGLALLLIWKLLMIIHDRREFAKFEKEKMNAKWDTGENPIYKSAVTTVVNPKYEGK
pIC50: −log10 of the molar value.
readout: pIC50

The following compounds have reported results that may help.
CCN1CCC(C)(C(=O)N[C@@H](Cc2cccc3c(-n4c(=O)ccn(C)c4=O)cccc23)C(=O)O)CC1 [Compound 160] ... < 6.00
Cn1ccc(=O)n(-c2cccc3c(C[C@H](NC(=O)C45CCN(CC4)CC5)C(=O)O)cccc23)c1=O [Compound 62] ... < 6.00
Cn1ccc(=O)n(-c2cccc3c(C[C@H](NC(=O)c4c(F)cc5nn(CC(F)(F)F)cc5c4F)C(=O)O)cccc23)c1=O [Compound 15] ... 6.00 to 7.00
Cn1ccc(=O)n(-c2cccc3c(C[C@H](NC(=O)c4c(F)ccc(NS(=O)(=O)C(F)(F)F)c4F)C(=O)O)cccc23)c1=O [Compound 12] ... 6.00 to 7.00
Cn1ccc(=O)n(-c2cccc3c(C[C@H](NC(=O)c4c(F)cccc4F)C(=O)O)cccc23)c1=O [Compound 1] ... 6.00 to 7.00
CN([C@H](CCC(=O)O)C(=O)N[C@@H](Cc1cccc2c(-n3c(=O)ccn(C)c3=O)cccc12)C(=O)O)S(=O)(=O)c1ccccc1 [Compound 72] ... < 6.00
Cn1ccc(C(F)(F)F)c(-c2nccc3c(C[C@H](NC(=O)c4c(CN5CCOCC5)cc(N5CCOC[C@@H]5C(F)(F)F)cc4C(F)(F)F)C(=O)O)cccc23)c1=O [Compound 227] ... < 6.00
Cn1ccc(=O)n(-c2cccc3c(C[C@H](NC(=O)c4ccc(C(=O)N5CCc6ccccc6C5)nc4)C(=O)O)cccc23)c1=O [Compound 25] ... < 6.00

Fill blank: measured pIC50 of the compound Cn1ccc(=O)n(-c2cccc3c(C[C@H](NC(=O)c4c(F)cc(NCC(F)(F)F)cc4CN4CCOCC4)C(=O)O)cccc23)c1=O [Compound 19] is ____. 6.00 to 7.00

Look up pIC50: CCOCc1cc(OC)c(-c2cccc3c(C[C@H](NC(=O)c4c(F)cccc4F)C(=O)O)cccc23)c(OC)c1 [Compound 172] 6.00 to 7.00

For Cn1ccc(C(F)(F)F)c(-c2cccc3c(C[C@H](NC(=O)c4c(F)cccc4F)C(=O)O)cccc23)c1=O [Compound 115] , what is its reported pIC50? 6.00 to 7.00

# query: pIC50 of entry Cn1ccc(=O)n(-c2cccc3c(C[C@H](NC(=O)[C@@]4(C)CCCN(CC(F)(F)F)CC4)C(=O)O)cccc23)c1=O [Compound 158] < 6.00

Return reported pIC50; argument: Cn1ccc(C(F)(F)F)c(-c2nccc3c(C[C@H](NC(=O)c4c(F)cc(N(CC(F)(F)F)CC(F)(F)F)cc4CN4CCCC4)C(=O)O)cccc23)c1=O [Compound 252] < 6.00

* * *

Reported IC50 values for the following compounds.
target: α4β7 integrin (Homo sapiens (Human), UniProt P13612+P26010); experiment: Integrin Adhesion Assay: Protocol 1 (MAdCAM-coated plate, RPMI-8866 cells, CellTiter GLO readout); format: cell-based; conditions: integrin adhesion assay; determined by at least one of the assays described (protocol not specified)
Sequence (P13612 34-1032): as the sequence (P13612 34-1032) above
Sequence (P26010 20-798): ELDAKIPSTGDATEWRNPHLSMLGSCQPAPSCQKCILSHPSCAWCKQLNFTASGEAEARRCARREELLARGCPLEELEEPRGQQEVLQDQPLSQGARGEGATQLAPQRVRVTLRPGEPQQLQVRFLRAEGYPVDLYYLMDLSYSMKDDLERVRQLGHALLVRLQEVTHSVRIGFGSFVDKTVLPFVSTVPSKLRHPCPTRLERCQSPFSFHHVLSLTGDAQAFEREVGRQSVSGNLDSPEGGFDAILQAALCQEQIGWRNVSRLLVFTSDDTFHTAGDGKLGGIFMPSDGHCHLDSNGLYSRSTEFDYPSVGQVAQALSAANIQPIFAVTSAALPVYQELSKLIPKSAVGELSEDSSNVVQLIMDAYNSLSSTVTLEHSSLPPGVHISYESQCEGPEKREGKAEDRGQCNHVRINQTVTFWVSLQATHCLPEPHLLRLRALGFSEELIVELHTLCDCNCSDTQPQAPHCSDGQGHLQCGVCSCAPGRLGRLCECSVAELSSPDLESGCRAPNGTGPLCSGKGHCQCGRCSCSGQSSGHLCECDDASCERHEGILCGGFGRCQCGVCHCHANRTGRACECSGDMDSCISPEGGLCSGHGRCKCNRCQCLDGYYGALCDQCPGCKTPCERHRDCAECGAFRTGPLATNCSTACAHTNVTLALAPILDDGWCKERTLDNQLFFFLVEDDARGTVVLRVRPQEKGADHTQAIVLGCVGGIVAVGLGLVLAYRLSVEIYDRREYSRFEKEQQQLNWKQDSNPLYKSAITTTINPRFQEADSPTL

Cn1ccc(=O)n(-c2cccc3c(C[C@H](NC(=O)[C@@]4(C)CCCN(CC(F)(F)F)CC4)C(=O)O)cccc23)c1=O [Compound 157] ... 10 to 100 nM
Cn1ccc(=O)n(-c2cccc3c(C[C@H](NC(=O)C4(C)CCN(C(=O)C(F)F)CC4)C(=O)O)cccc23)c1=O ... 100 to 1000 nM
Cn1ccc(=O)n(-c2cccc3c(C[C@H](NC(=O)c4c(F)cc5c(cnn5CC(F)(F)F)c4F)C(=O)O)cccc23)c1=O ... < 10 nM
Cn1ccc(=O)n(-c2cccc3c(C[C@H](NC(=O)C45C[C@H]6C[C@@H](C4)C[C@@H](C5)C6)C(=O)O)cccc23)c1=O ... 100 to 1000 nM

Field: next compound
IC50 lookup needed for Cn1ccc(C(F)(F)F)c(-c2nccc3c(C[C@H](NC(=O)c4c(F)cc5nc(CC(F)(F)F)[nH]c5c4F)C(=O)O)cccc23)c1=O , thanks. 10 to 100 nM

* * *

Measured pIC50, listed per entry for reference.
target: α4β7 integrin (Homo sapiens (Human), UniProt P13612+P26010); experiment: Integrin Adhesion Assay: Protocol 1 (MAdCAM-coated plate, RPMI-8866 cells, CellTiter GLO readout); type: cell-based; conditions: integrin adhesion assay; determined by at least one of the assays described (protocol not specified)
pIC50: −log10 of the molar value.

CC(C)Oc1cc(F)c(C(=O)N[C@@H](Cc2cccc3c(-n4c(=O)ccn(C)c4=O)cccc23)C(=O)O)c(F)c1 ... 7.00 to 8.00
Cn1ccc(C(F)(F)F)c(-c2nccc3c(C[C@H](NC(=O)c4c(F)cccc4C(F)(F)F)C(=O)O)cccc23)c1=O ... 6.00 to 7.00
Cn1ccc(C(F)(F)F)c(-c2nccc3c(C[C@H](NC(=O)c4c(F)cc(N5CCOC[C@@H]5C(F)(F)F)cc4CN4CCCC4)C(=O)O)cccc23)c1=O ... > 8.00
O=C(N[C@@H](Cc1cccc2c(-c3cccc4ccncc34)nccc12)C(=O)O)c1c(F)cc(NCC(F)(F)F)cc1CN1CCCC1 ... 7.00 to 8.00
COc1ccc(F)c(C(=O)N[C@@H](Cc2cccc3c(-n4c(=O)ccn(C)c4=O)cccc23)C(=O)O)c1F ... 7.00 to 8.00

# input for lookup
Query the reported pIC50 for α4β7 integrin (Homo sapiens (Human), UniProt P13612+P26010); item: CCOCc1cc(OC)c(-c2cccc3c(C[C@H](NC(=O)c4c(F)cccc4F)C(=O)O)cccc23)c(OC)c1 7.00 to 8.00

* * *

This listing pairs compounds with measured pIC50.
biological target: α4β7 integrin (Homo sapiens (Human), UniProt P13612+P26010); assay: Integrin Adhesion Assay: Protocol 1 (MAdCAM-coated plate, RPMI-8866 cells, CellTiter GLO readout); assay type: cell-based; settings: integrin adhesion assay; determined by at least one of the assays described (protocol not specified)
pIC50: −log10 of the molar value.

Worked cases, pIC50 given:
CN1CCN(Cc2cc(N3CCOC[C@@H]3C(F)(F)F)cc(F)c2C(=O)N[C@@H](Cc2cccc3c(-n4c(=O)ccn(C)c4=O)cccc23)C(=O)O)CC1 ... > 8.00
Cn1ccc(=O)n(-c2cccc3c(C[C@H](NC(=O)C4(C)CCC(C)(C)CC4)C(=O)O)cccc23)c1=O ... 6.00 to 7.00
Cn1ccc(=O)n(-c2cccc3c(C[C@H](NC(=O)C4(C)CCN(CC(F)(F)F)CC4)C(=O)O)cccc23)c1=O ... 7.00 to 8.00
C=CCc1cn(C)c(=O)n(-c2cccc3c(C[C@H](NC(=O)c4c(F)cccc4F)C(=O)O)cccc23)c1=O ... 7.00 to 8.00

Field: pIC50 (α4β7 integrin (Homo sapiens (Human), UniProt P13612+P26010)). Entry: Cn1cc(CCO)c(=O)n(-c2cccc3c(C[C@H](NC(=O)c4c(F)cccc4F)C(=O)O)cccc23)c1=O 7.00 to 8.00

pIC50 of CC(C)N1CCC(C)(C(=O)N[C@@H](Cc2cccc3c(-n4c(=O)ccn(C)c4=O)cccc23)C(=O)O)CC1 on α4β7 integrin (Homo sapiens (Human), UniProt P13612+P26010)? 7.00 to 8.00

Form field: pIC50 recorded for Cn1ccc(=O)n(-c2cccc3c(C[C@H](NC(=O)c4c(F)cc(CN5CCOCC5)cc4F)C(=O)O)cccc23)c1=O with α4β7 integrin (Homo sapiens (Human), UniProt P13612+P26010) (enter value) 6.00 to 7.00

Enter reported pIC50 observed with α4β7 integrin (Homo sapiens (Human), UniProt P13612+P26010) for Cn1ccc(=O)n([C@@H]2CCc3c(C[C@H](NC(=O)c4c(F)cccc4F)C(=O)O)cccc32)c1=O (single isomer, unassigned) 7.00 to 8.00

Form field - read-out: pIC50; system: α4β7 integrin (Homo sapiens (Human), UniProt P13612+P26010); submitted item: Cn1ccc(=O)n(-c2cccc3c(C[C@H](NC(=O)c4c(F)cc5ncccc5c4F)C(=O)O)cccc23)c1=O > 8.00

Lab note: need pIC50 with α4β7 integrin (Homo sapiens (Human), UniProt P13612+P26010) for entry O=C(N[C@@H](Cc1cccc2c(-c3cccc4ccncc34)cccc12)C(=O)O)c1c(F)cc(N2CCOC[C@@H]2C(F)(F)F)cc1CN1CCCC1 , please look it up. > 8.00

For the record CN(C)CCc1cn(C)c(=O)n(-c2cccc3c(C[C@H](NC(=O)c4c(F)cccc4F)C(=O)O)cccc23)c1=O , what value of pIC50 is listed for α4β7 integrin (Homo sapiens (Human), UniProt P13612+P26010)? 7.00 to 8.00

// fetch α4β7 integrin (Homo sapiens (Human), UniProt P13612+P26010) pIC50 for O=C(N[C@@H](Cc1cccc2c(-c3nccc4ccncc34)cccc12)C(=O)O)c1c(F)cc(CN2CCOCC2)cc1F 6.00 to 7.00

For α4β7 integrin (Homo sapiens (Human), UniProt P13612+P26010), provide pIC50 of Cn1ccc(=O)n(-c2cccc3c(C[C@H](NC(=O)c4c(F)cc(CN5CCC5)cc4F)C(=O)O)cccc23)c1=O please. < 6.00

Lab note: need pIC50 for Cn1ccc(=O)n(-c2cccc3c(C[C@H](NC(=O)C4(C)CCCN(CC(F)(F)F)C4)C(=O)O)cccc23)c1=O (stereo partly shown) on α4β7 integrin (Homo sapiens (Human), UniProt P13612+P26010), anyone have it? < 6.00
